S.I. = selectivity index = CD50/ED50 (toxicity/activity) by entry:
tested on: HIV-1; settings: CD50/ED50
Reply with the value as a number alone.

{"columns": ["molecule", "observed_result"],
 "data": [
  ["C=Cc1c2[n-]c(c1C)/C=c1\\[n-]/c(c(C)c1C=C)=C\\c1[n-]c(c(CCC(=O)O)c1C)C=c1[n-]/c(c(C)c1CCC(=O)O)=C\\2.[Sn+4] [Sn-Protoporphyrin IX, tin protoporphyrin IX]", 33.5]
]}

Please look at the following molecule next.
Fill in: S.I. = selectivity index = CD50/ED50 (toxicity/activity) of C=CC1=C(C)c2cc3[nH]c(cc4nc(cc5[nH]c(cc1n2)c(C)c5CCC(=O)O)C(CCC(=O)O)=C4C)c(C)c3C=C [Protoporphyrin IX] is ___ 7.3

----------
Measured S.I. = selectivity index = CD50/ED50 (toxicity/activity), listed per entry.
tested on: HIV-1; conditions: CD50/ED50

Field: example entries. Status: answers known.
{"columns": ["molecule", "observed_result"],
 "data": [
  ["C=CC1=C(C)c2cc3[n-]c(cc4[n-]c(cc5nc(cc1n2)C(C)=C5C=C)c(C)c4CCC(=O)O)c(CCC(=O)O)c3C.[Mn+2]", ">2.8"],
  ["C=CC1=C(C)c2cc3[n-]c(cc4[n-]c(cc5nc(cc1n2)C(C)=C5C=C)c(C)c4CCC(=O)O)c(CCC(=O)O)c3C.[Zn+2]", ">3.1"]
]}

Proceeding to the next compound to report its S.I. = selectivity index = CD50/ED50 (toxicity/activity).
Param readout= S.I. = selectivity index = CD50/ED50 (toxicity/activity); system= HIV-1; entry= C=Cc1c(C)c2cc3[nH]c(cc4nc(cc5nc(cc1[nH]2)C(C)=C5CCC(=O)[O-])C(CCC(=O)[O-])=C4C)c(C)c3C=C.[Co+2] ; returns value. >6.2

Values from patent US6727240B1
